Concentration of radioactivity, kidney, Mean by entry:
System: grafted B16 F0 murine melanoma tumour
Test: Biodistribution of the ^125I-labelled molecules in the melanoma-bearing mouse (autoradiography of whole-body sections)
Details: 6 H after i.v. administration, ^125I-labelled compound
Structures can show the parent of a compound that is named as a salt.
parameter.measured: Concentration of radioactivity, kidney, Mean (% ID/g)

compound	val
CCN(CC)CCNC(=O)c1ccc(I)nc1 [compound 7, dihydrochloride]	3.05
CCN(CC)CCNC(=O)c1ccc2cc(I)ccc2c1 [compound 3, hydrochloride]	3.07
CCN(CC)CCNC(=O)c1ccc2cc(I)ccc2n1.Cl.Cl	7.60
CCN(CC)CCNC(=O)c1cc2cc(I)ccc2[nH]1 [compound 10, hydrochloride]	2.50
CCN(CC)CCNC(=O)c1nc2ccccn2c1I [compound 16, dihydrochloride]	4.47

----------
Test system: grafted B16 F0 murine melanoma tumour
Assay: Biodistribution of the ^125I-labelled molecules in the melanoma-bearing mouse (autoradiography of whole-body sections)
Conditions: pancreas; 1 H
Structures can show the parent of a compound that is named as a salt.
Rule: Biodistribution, Mean, pancreas below 2 gives Criterion met, anything at or above gives Criterion not met.

compound	qualitative.label
CCCN(CCC)CCCCNC(=O)c1ccc2cc(I)ccc2n1 [compound 49, dihydrochloride]	Criterion not met
CCN(CC)CCNC(=O)c1cnc2cc(I)ccc2n1.Cl.Cl	Criterion not met
CCN(CC)CCNC(=O)c1cc2c(I)cccc2cn1 [compound 39, dihydrochloride]	Criterion not met
CCN(CC)CCNC(=O)c1ccc2cncc(I)c2n1.Cl.Cl	Criterion met
CCN(CC)CCNC(=O)c1c[nH]c2ccc(I)cc2c1=O [compound 35, dihydrochloride]	Criterion not met
CCN(CC)CCNC(=O)c1cccc2cc3cc(I)ccc3nc12 [compound 111, dihydrochloride]	Criterion met

----------
Biodistribution, Mean, uvea by entry:
System: grafted B16 F0 murine melanoma tumour
Test: Biodistribution of the ^125I-labelled molecules in the melanoma-bearing mouse (autoradiography of whole-body sections)
Conditions: uvea; 6 H
Where a name gives a salt, the structure may show the parent alone.

compound	Biodistribution, Mean, uvea
CCN(CC)CCNC(=O)c1c[nH]c2ccc(I)cc2c1=O [compound 35, dihydrochloride]	5.18
CCN(CC)CCNC(=O)c1cccc2cc3cc(I)ccc3nc12 [compound 111, dihydrochloride]	3.51
CCN(CC)CCNC(=O)c1cnc2cc(I)ccc2n1.Cl.Cl	32.30
CCN(CC)CCNC(=O)c1cc2c(I)cccc2cn1 [compound 39, dihydrochloride]	18.02
CCCN(CCC)CCCCNC(=O)c1ccc2cc(I)ccc2n1 [compound 49, dihydrochloride]	28.78
CCN(CC)CCNC(=O)c1ccc2cncc(I)c2n1.Cl.Cl	13.15

----------
Test system: grafted B16 F0 murine melanoma tumour
Assay: Biodistribution of the ^125I-labelled molecules in the melanoma-bearing mouse (autoradiography of whole-body sections)
Conditions: B 16 tumour; 72 H
Counter-ions that a name gives are not always drawn.
Biodistribution, Mean, B 16 by entry:

compound	Biodistribution, Mean, B 16
CCN(CC)CCNC(=O)c1cccc2cc3cc(I)ccc3nc12 [compound 111, dihydrochloride]	1.67
CCN(CC)CCNC(=O)c1cnc2cc(I)ccc2n1.Cl.Cl [compound 46]	12.45
CCN(CC)CCNC(=O)c1c[nH]c2ccc(I)cc2c1=O [compound 35, dihydrochloride]	2.35
CCN(CC)CCNC(=O)c1ccc2cncc(I)c2n1.Cl.Cl [compound 142]	3.31
CCN(CC)CCNC(=O)c1cc2c(I)cccc2cn1 [compound 39, dihydrochloride]	3.13
CCCN(CCC)CCCCNC(=O)c1ccc2cc(I)ccc2n1 [compound 49, dihydrochloride]	10.86
